- SYSTEM: Calmodulin-1 (Homo sapiens)
- TEST_METHOD_NOTES: CALM1 binders on microarrays, EGTA buffer, profiling panel, biochemical, small-molecule microarray, Cy5-labelled CALM1 (AID 1111);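 further: labelled calmodulin applied in Tris saline Tween buffer holding calcium plus EGTA and DTT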
- CONDITION_INFO: Cy5-CALM1 binding fluorescence, higher = more signal
// values below are reported composite z-score
# respond with the number and nothing more

Reference set (2 entries):
INSERT INTO assay_data (compound, recorded_value) VALUES
  ('CN1C(=O)C2C=CC(C(O)c3ccccn3)N(N(c3ccccc3)c3ccccc3)C2C1=O (stereo not drawn)', 0.0023),
  ('CC1=C[C@@]2(CO)C(=O)[C@]3(CO3)[C@@H]1[C@H]1[C@]2(C)C=C(CO)C(=O)[C@]12CO2', -0.163);

stdin: Hi! What's the reported composite z-score for CC(C)C[C@@H]1NC(=O)[C@@H]2C[C@H](C(=O)NCCCCCN)[C@H](c3ccc(O)cc3)N2C1=O on Calmodulin-1 (Homo sapiens)?
stdout: 1.17

stdin: Provide value of composite z-score for this record tested with Calmodulin-1 (Homo sapiens): COC(=O)c1ccc([C@H](NC(=O)c2ccco2)[C@]2(C)C[C@H]2C2CCCCC2)cc1
stdout: 1.51
